system: L1210 leukemia ip in BDF1 mice, survival T/C; test: NCI In Vivo Anticancer Drug Screen. Data for tumor model L1210 Leukemia (intraperitoneal) in B6D2F1 (BDF1) mice; settings: endpoint: mean survival time; dose: 400.0 mg/kg/injection; schedule: Q04DX002 (ip); vehicle: gum acacia; higher = longer survival
Inconclusive results and toxic doses are left out.
Readout type: T/C

Request: Give recorded T/C. `Cc1ccc(CC#N)c(-c2c(CC#N)ccc(C)c2C)c1C`
Response: 93 % of control

Request: Provide T/C value for the following compound: `COc1cc(C=C(C#N)C#N)ccc1OC(=O)c1cc(OC)c(OC)c(OC)c1`
Response: 92 % of control

Request: Look up and report measured T/C for this entry: NC(=O)C(NC(=O)c1ccc([N+](=O)[O-])cc1)SCc1ccccc1 (centres undefined)
Response: 86 % of control

Request: Name the recorded T/C of the item `S=P(NCc1ccccc1)(NCc1ccccc1)NCc1ccccc1` in your answer.
Response: 94 % of control

* * *

Recorded T/C for the following compounds
system: L1210 leukemia ip in BDF1 mice, survival T/C; test: NCI In Vivo Anticancer Drug Screen. Data for tumor model L1210 Leukemia (intraperitoneal) in B6D2F1 (BDF1) mice; conditions: endpoint: mean survival time; dose: 200.0 mg/kg/injection; schedule: Q01DX009 (ip); vehicle: saline with Tween-80; higher = longer survival
Toxic doses and inconclusive results are not listed.

// known answers, use as guide
{"columns": ["Chemical string", "Tgt", "Assay value"],
 "data": [
  ["CCOc1c(Br)cc(Br)cc1C=O", "L1210 leukemia ip in BDF1 mice, survival T/C", "94 % of control"],
  ["COc1cccc(/C=N\\NC(=O)CNC(=O)Nc2ccc(Cl)c(Cl)c2)c1OC", "L1210 leukemia ip in BDF1 mice, survival T/C", "86 % of control"],
  ["CSc1nc(N)c(C#N)cc1C#N", "L1210 leukemia ip in BDF1 mice, survival T/C", "88 % of control"]
]}

Request: Quote T/C reported for `COc1ccc(OC)c(CCC(O)CCc2cc(OC)ccc2OC)c1` please.
Response: 90 % of control

Request: Hello, please tell me recorded T/C for this one: `COc1ccc(OC)c(Br)c1`
Response: 107 % of control

Request: Dear colleague, please send me the reported T/C for `O=C1O/C(=C\c2ccccc2)c2ccccc21` when you can.
Response: 97 % of control

Request: Give the measured T/C for `Cc1ccc(S(=O)(=O)N(CCC(=O)O)c2ccccc2)cc1`
Response: 97 % of control

* * *

tested on: L1210 leukemia ip in BDF1 mice, survival T/C; test: NCI In Vivo Anticancer Drug Screen. Data for tumor model L1210 Leukemia (intraperitoneal) in B6D2F1 (BDF1) mice; details: endpoint: mean survival time; dose: 100.0 mg/kg/injection; schedule: Q04DX002 (ip); vehicle: saline with Tween-80; higher = longer survival
Inconclusive results and toxic doses are left out.
Below: a set of entries, each annotated with reported T/C.

{"columns": ["Compound", "T/C"],
 "data": [
  ["C[N+](C)(C)CCOC(=O)c1ccccc1CCl", "98 % of control"]
]}

Request: Respond only with T/C recorded for `CCCCSC(C)(SCCCC)SCCCC`
Response: 97 % of control

Request: Supply T/C value. Item: `CSc1ccc(NC(=O)NS(=O)(=O)c2ccc(C)cc2)cc1`
Response: 96 % of control

Request: Please report T/C for the following compound: `O=S(=O)(c1ccc(N=NN2CCOCC2)cc1)N(CCCl)CCCl`
Response: 108 % of control

Request: Determine its reported T/C: CC(NCCOc1ccccc1)c1ccccc1 (configuration not stated)
Response: 108 % of control

Taken from PubChem BioAssay AID248.
